Target: DRB1*07:01 (Homo sapiens, UniProt P01903+P01911, A100R/A102G/A103Q/D57E/D86V/E43K/F76Y/K127E/L162R/M171V/P40G/Q125H/Q99D/R33Q/R42Y/R54Q/S133A/S66F/T210M/V115G/Y107V/Y59L/Y89S)
Test: HLA class II peptide binding, inhibition of radiolabeled peptide binding to purified MHC
Conditions: Other DR, competition with radiolabeled peptide, two-day incubation, three or more independent experiments
Ends that are not written are not given here.
Measurement Kind: IC50

Illustrative cases are given below, each with its answer.
SAVRLRSSVPGVR [Vimentin 66–78 WT]
> 30 µM
VVLLVATEGRVRVNSAYQDK [Aggrecan 84–103 WT]
3.03 µM

Batch request: IC50 per item, same order as input.
1. NQDFTNRINKLKNS [Fibrinogen 78–91 WT]
2. LQYMRADQAAGGLR [Collagen II 1236–1249 WT]

A:
1. > 30 µM
2. 29.6 µM
